Values from PubChem BioAssay

Test: HepG2 liver cancer cell viability effects, profiling panel, resazurin fluorescence, 24 h, PK04 Diversity Set (AID 1172); note: test concentration not given here
Settings: higher = more signal
Exercise: state measured z-score for each of the molecules provided.
Give bare numbers.

# example entries with known answers
[[record]]
molecule = "CC(C)=CCCC(C)=CCON=C1C[C@@H](O)[C@@H](O)[C@@H]2[C@@H]3C(=O)N(c4ccc(F)cc4F)C(=O)[C@@H]3CC[C@H]12"
result_number = 0.844

[[record]]
molecule = "Cn1c(=O)n2n(c1=O)[C@H]1[C@H](O)[C@@H]3O[C@@H]3C(=O)[C@H]1CC2"
result_number = -0.12

[[record]]
molecule = "C=CC[C@@H]1C=C[C@H](ON=C[C@@H](C)[C@H](OCc2ccccc2)C(C)C)[C@@H](CO)O1"
result_number = 0.0253

[[record]]
molecule = "CC(C)=NOC[C@@H](C)[C@H](OCc1ccccc1)C(C)C"
result_number = -0.593


State recorded z-score for all listed molecules.
1. CCOC(=O)[C@H](Cc1ccccc1)NC(=O)CCC1CC(OC(=O)NCc2cccc3ccccc23)CC2(CCCC(COC(=O)NCc3cccc(C(F)(F)F)c3)O2)O1 (some centres not stated)
2. C#CCCCON=C1C[C@@H](O)[C@@H](O)[C@@H]2[C@@H]3C(=O)N(Cc4ccccc4)C(=O)[C@@H]3CC[C@@H]12
3. CO[C@@H]1COC(=O)[C@H](CCSC)NC(=O)CC=C[C@@H](C)COC(=O)[C@H](C)NC(=O)CC=C[C@H]1C

Completion:
-0.256
0.71
0.356

###

Test: anti-His antibody binders, primary screen, artefact control for SMM control protein annotation, biochemical, small-molecule microarray, 635 nm fluorescence (AID 1128);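 note: score merges feature fluorescence with signal-to-noise for each printed compound spot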
Details: anti-His Alexa647 antibody binding, higher = more signal
Exercise: state measured composite z-score for each of the compounds provided.
Numbers only.

[[record]]
compound = "COC(=O)[C@H](C)NC(=O)CCC1CC(OC(=O)NCc2cccc3ccccc23)CC2(CCCC(COC(=O)NCC(c3ccccc3)c3ccccc3)O2)O1 (some centres undefined)"
result_type = "composite z-score"
result_number = 1.04


State recorded composite z-score for all listed compounds.
1. C=C(C)C(=O)OCC1CN2[C@@H](CC[C@@H](C)[C@@H]2c2ccc(Br)cc2)C(=O)O1 (some centres undefined)
2. CC(=O)OC[C@H]1O[C@@H](ON=C(C)CCN2CCCc3nc(C)c(C)cc32)[C@H](OC(C)=O)[C@@H](OC(C)=O)[C@@H]1OC(C)=O
3. COc1cccc([C@@H]2Oc3ccc(OC)cc3C(=O)[C@H]2O)c1
4. O=C1C2=CC[C@H]3C(=O)N(c4cccc(Oc5ccccc5)c4)C(=O)[C@H]3[C@H]2[C@H](O)[C@@H]2O[C@H]12
5. CC(CCN1CCCc2nc(C)c(C)cc21)=NOC(C)CN1CCCCc2nc(C)c(C)cc21 (centres undefined)

Completion:
[0.0797, 0.269, 0.575, 0.703, 0.363]

State recorded composite z-score for all listed compounds.
1. CCCNC(=O)OC[C@H]1O[C@H](CCON=C(C)C)C=C[C@@H]1Oc1ccc(OC)cc1
2. O=C1OCCC=C1C(O)CCc1ccccc1 (centres undefined)
3. C#CCCCON=C1C[C@@H](O)[C@@H](O)[C@@H]2[C@@H]3C(=O)N(Cc4ccccc4)C(=O)[C@@H]3CC[C@@H]12
4. CCOC(=O)NN=C1C[C@@H](O)[C@@H](O)[C@@H]2[C@@H]3C(=O)N(c4ccc(F)cc4F)C(=O)[C@@H]3CC[C@@H]12
5. CC(CCN1CCCCc2nc(C)c(C)cc21)=NOC[C@@H](C)[C@H](OCc1ccccc1)C(C)C
6. C#CCCCON=C1C[C@@H](O)[C@@H](O)[C@@H]2[C@@H]3C(=O)N(C(C)(C)C)C(=O)[C@@H]3CC[C@@H]12

Completion:
1: 1.82; 2: -0.139; 3: 0.309; 4: 0.508; 5: 1.59; 6: -0.331

###

Assay: binders of probe aFST on microarray, primary screen, stem cell growth factor project, biochemical, small-molecule microarray, fluorescence 635/667 (AID 1086);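 note: score merges 667 nm fluorescence with signal-to-noise of each printed compound spot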
Settings: higher = more signal
Exercise: state measured composite z-score for each of the molecules provided.
Answers are plain numbers.

[[record]]
molecule = "CO[C@H]1COC(=O)[C@@H]2CCCN2C(=O)CC=C[C@@H](C)[C@H](OC)COC(=O)[C@@H](OCc2ccccc2)C=C[C@@H]1C"
result_type = "composite z-score"
result_number = 0.317

[[record]]
molecule = "COc1ccc(O[C@H]2C=C[C@@H](c3ccccc3)O[C@@H]2CON=C(C)CCC(=O)OC[C@H]2O[C@H](c3ccccc3)C=C[C@@H]2Oc2ccc(OC)cc2)cc1"
result_type = "composite z-score"
result_number = -0.677


Now for the molecule whose composite z-score we want.
Prompt: Requested read-out: composite z-score. Entry: CC(=O)OC[C@H]1OC(ON=CC[C@@H]2C=C[C@H](OC(C)=O)[C@@H](COC(C)=O)O2)[C@H](OC(C)=O)[C@@H](OC(C)=O)[C@@H]1OC(C)=O (stereo partly drawn)
Completion: 0.52

###

Assay: PSAC antagonists in infected red cells, primary screen, cell-based, P. falciparum Indochina, OD700, 1 h (AID 1154)
Details: P. falciparum Indochina infected RBC osmotic lysis, called active from +8 up or from −8 down
Calls of active or inactive are those of the source.
Respond only with the outcome that fits, drawn from active, inactive

The following compounds have reported results that may help.
[[record]]
compound = "CCN1C(=O)[C@H]2[C@H]3[C@H](O)[C@H](O)CC(=O)[C@H]3CC[C@H]2C1=O"
assigned_label = "inactive"

[[record]]
compound = "CC(CCN1CCCc2nc(C)c(C)cc21)=NO[C@@H](C)c1cc(-c2c(C)cc(C)cc2C)no1"
assigned_label = "inactive"

[[record]]
compound = "CO[C@H]1COC(=O)CCC[C@@H](C)[C@H](OC)COC(=O)[C@@H]2CCCN2C(=O)CC=C[C@@H]1C"
assigned_label = "inactive"

[[record]]
compound = "CC(=O)Nc1ccc([C@@H]2N[C@H](C(=O)O)CC[C@H]2C)cc1"
assigned_label = "inactive"

[[record]]
compound = "COC(=O)[C@H](C)NC(=O)CCC1CC(OC(=O)NCc2ccc3c(c2)OCO3)CC2(CCCC(COC(=O)NCCc3ccccc3OC)O2)O1 (stereo partly drawn)"
assigned_label = "active"


Prompt: Per the assay record, what outcome was assigned to CC(=O)OC[C@H]1O[C@H](CCON=C2[C@H]3CCn4c(=O)n(-c5ccccc5)c(=O)n4[C@H]3[C@H](O)[C@@H]3O[C@H]23)C=C[C@@H]1OC(C)=O ?
Completion: inactive

Prompt: Per the assay record, what outcome was assigned to CCOC(=O)[C@H](Cc1ccccc1)NC(=O)CCC1CC(OC(=O)NCc2cccc3ccccc23)CC2(CCCC(COC(=O)NCCC(C)C)O2)O1 (stereo partly drawn) ?
Completion: active

Prompt: Per the assay record, what outcome was assigned to Cc1cc2c(c(=O)o1)[C@@H](O)[C@H]1O[C@H]1C2=O ?
Completion: inactive

###

Test system: Sonic hedgehog protein (Shh)
Assay: small-molecule binders of Shh protein, primary screen, biochemical, small-molecule microarray, 635/667 nm fluorescence (AID 1151);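 note: Shh protein binding to compounds spotted on small-molecule microarray slides; score combines spot fluorescence intensity with signal-to-noise across triplicate slides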
Details: small-molecule microarray binding, 635 nm fluorescence; higher = more signal
result.type: composite z-score
Numbers only.

# example entries with known answers
[[record]]
compound = "COc1ccc(O[C@H]2C=C[C@@H](c3ccccc3)O[C@@H]2CON=C(C)CCC(=O)OC[C@H]2O[C@H](c3ccccc3)C=C[C@@H]2Oc2ccc(OC)cc2)cc1"
result_type = "composite z-score"
result_number = 2.02

[[record]]
compound = "CCN1C(=O)[C@H]2[C@H]3[C@H](O)[C@H](O)CC(=NO[C@@H](C)c4cn([C@H](CO)Cc5ccccc5)nn4)[C@@H]3CC[C@H]2C1=O"
result_type = "composite z-score"
result_number = 0.486

[[record]]
compound = "CON=C[C@@H](NS(=O)(=O)c1ccc(C)cc1)[C@H](C)C=CCC(=O)OC"
result_type = "composite z-score"
result_number = 0.779

[[record]]
compound = "CC(=O)OC[C@H]1O[C@@H](ON=C(C)CCN2CCCc3nc(C)c(C)cc32)[C@H](OC(C)=O)[C@@H](OC(C)=O)[C@@H]1OC(C)=O"
result_type = "composite z-score"
result_number = 1.06

[[record]]
compound = "CCOC(=O)CCN1C(=O)[C@H]2[C@H]3[C@H](O)[C@H](O)CC(=NOCC(C)C)[C@H]3CC[C@H]2C1=O"
result_type = "composite z-score"
result_number = -0.249


State recorded composite z-score for all listed compounds.
1. O=C(NN=C1C[C@@H](O)[C@@H](O)[C@@H]2[C@@H]3C(=O)N(C[C@@H]4CCCO4)C(=O)[C@@H]3CC[C@@H]12)OCc1ccccc1
2. COC(=O)[C@H]1O[C@@H](c2c(OC)c(OC)c(C)c(OC)c2OC)[C@H](C)[C@@H](O)[C@H]1C
3. CCOC(=O)[C@H](CC(C)C)NC(=O)CCC1CC(OC(=O)NCc2ccc3c(c2)OCO3)CC2(CCCC(COC(=O)NCC3CCCCC3)O2)O1 (some centres undefined)
4. C#CCCCON=C1C[C@@H](O)[C@@H](O)[C@@H]2[C@@H]3C(=O)N(c4ccc(F)cc4F)C(=O)[C@@H]3CC[C@H]12
5. COc1ccc(COC(=O)NN=C2C[C@@H](O)[C@@H](O)[C@@H]3[C@@H]4C(=O)N(Cc5ccccc5)C(=O)[C@@H]4CC[C@H]23)cc1

Completion:
1. 0.604
2. 0.434
3. 1.52
4. 0.782
5. -1.44

State recorded composite z-score for all listed compounds.
1. CCc1cc2c(nc1CC)CCN(CCC(C)=NOC[C@H]1O[C@H](c3ccccc3)C=C[C@@H]1Oc1ccc(OC)cc1)C2
2. CCC1=NOC(CCC2CC(OC(=O)NCc3cccc4c3OCO4)CC3(CCCC(COC(=O)NCCc4ccccc4OC)O3)O2)C1 (centres undefined)
3. CCOC(=O)CCN1C(=O)[C@H]2[C@H]3[C@H](O)[C@H](O)CC(=NOCc4ccccc4)[C@H]3CC[C@H]2C1=O
4. CC(CCN1CCCCc2nc(C)c(C)cc21)=NO[C@H](C)c1cn([C@H](CO)Cc2ccccc2)nn1

Completion:
1: 0.839; 2: 0.157; 3: -0.212; 4: 1.32
